# experimental_details: Half life in cynomolgus monkey at 3 mg/kg, iv
# Type: ADME, organism-based, Macaca fascicularis
# Design: dose 3 mg/kg, route intravenous
# condition_notes: in vivo
observable: half-life (h)

C[C@@H]1OC(C)(C)O[C@H]1C(CS(=O)(=O)c1ccc(Oc2ccc(OC(F)(F)F)cc2)cc1)N(O)C=O (some centres undefined); 19.5

(1) O=CN(O)C(COCCO)CS(=O)(=O)c1ccc(Oc2ccc(OC(F)(F)F)cc2)cc1 (centres undefined)
(2) O=CN(O)C(CS(=O)(=O)c1ccc(Oc2ccc(OC(F)(F)F)cc2)cc1)[C@H](O)CO (some centres undefined)
(3) CC1(C)OC[C@H]([C@@H](CS(=O)(=O)c2ccc(Oc3ccc(OC(F)(F)F)cc3)cc2)N(O)C=O)O1
Sort the molecules on half-life; start with the lowest figure. Reply format: the labels, ordered as requested.
2, 1, 3
